# PROTOCOL_DETAILS: soluble on expression in E. coli; label from the status in PepcDB or PDB records
REPORTED_ENDPOINT: soluble on expression in E. coli

>>> result_value("MGVTLAKGGNVSLSKEAPGLTAVTVGLGWDVRTTTGAAYDLDASALLCSGSGRVVSDLHFVFYNNLTSPDGSVQHTGDNLTGEGEGDDESINVELAQVPAEVTKIVFPVSIHEAQSRGQSFGQVSNAFIRVVNRANNVELARYDLSEDASTETAMVFGELYRHGGEWKFRAVGQGYASGLAGIASDYGVNV")
"not soluble"
>>> result_value("MGSDKIHHHHHHMVTETYINKLLAPIRRRITGMLTRAVVSGIVEDLQRQNLQVKMHADESADNIERFQNYGMSSYPPEGAEAIVAALGGALSGLVAIAVEDKKFRPKGESGDVFLYHLEGHKIRLTKDGKIILTAQDVIFEIENSFTISTTDVIFNASGSFTIISPETLIDGPLHVTGDISTDLGITAVNGITSNSVITGSDLSANNISYLGHIHKDAENRPTTAPE")
"not soluble"

---

# PROTOCOL_DETAILS: soluble on expression in E. coli; label from the status in PepcDB or PDB records
REPORTED_ENDPOINT: soluble on expression in E. coli

>>> result_value("GPGSMADAYRERALPTLSVLERLRCLRREHVPYASHYCEENAYKLVEALYRDFSLPDHAVFAVFISNDCKSTPVWKQRLGNGRCPLMWDYHVITLVNVGAGDEGGMWAFDQDTTLPFPCEGLRYIEESFHPEMQLDDKYRQRFRVVPGRDYLEYFSSDRSHMKDFDAAQPPWPLIRGCRAPSDMRLGLYVDVHQSSSGEDVKKEQGCGKILSIAELISFVSP")
"soluble"
>>> result_value("MGSDKIHHHHHHMVSFVHSSDLHLGKSFGTFPEDVRVRLQQARLESLTTLADIARTNGARHVLLAGDTFDKMTPAPKVIRGALNAMREAADVTWWVLPGNHDHVNATELWRTFTSDAPANVHALLRPEPVMLTDGVALLPAPPTERHPGRDLTDWFDDAATGDALRIGLAHGSIRGFSAEDGGASVLSFNRARDAGLAYLGLGDWHGQLQVSENTWYSGAPEADSFKHAMDPSALLVEVDGARVTVTPHPTSRLIWRASEVDLIGDEADLPLPPQDRARTLLKLTLTGRARPAVRRDLEAAFDHAAPDFLWAEAEFDGLDLVHETSDLDQIDRQGALRAAAEALVREADDQALSPEARATADAALSLLFTYAAEA")
"not soluble"
>>> result_value("MTVSREVELEGHIIDSGMMQSCFGIIMDLGGSFSVQKFDIGRHKDEESYARMLVEADDEAQLQSIVHELHQHGVNPSDPKDATLVPAPDDQVVPHGFYSTTNHPLEHHHHHH")
"not soluble"
>>> result_value("MAHHHHHHMGKYAVVVIGPAGSGKSTLCTVVAEHYATKGRSTHICNFDPAAEDLPYDPSIDIRELISLEDAMEGKGLGPNGGLVFCMEYLLGQGEVWLCDQLGDHEEDFIIVDMPGQLEVLSHIPAVPGFVRLLERSGFHVVVLFLLDALAATADAGKFVSGCTFALSCMVCFECPFMNVLTKCDLLPPAIREEALDHFCTCDFDYLNTKPLPERWREMVRTLAAVIFDFNLVTFRPMDNTDVAYVGNLCYLIDEALQVVDDAEVNDRDLPDASEAGEAVEDTMDWKHY")
"not soluble"
>>> result_value("MSGDIPLHQLQPNMNSFSVTVIVLDPGIHRRTQTGTIISMKVADASGSINASIMNPEFNETFKPGDILKFRGAYTSIYQGGLTLSVGKSGECKKVGEFMMVFSETPDISMMPLPAGVMDRRNERMQSPAGRYSRPSN")
"not soluble"
>>> result_value("KMPLTIYSADGEVIGMYGEQRREFTKIGDFPEVLRNAVIAAEDKRFYRHWGVDVWGVARAAVGNVVSGSVQSGASTITQQVAKNFYLSSEKTFTRKFNEVLLAYKIEQSLSKDKILELYFNQIYLGQRAYGFASAAQIYFNKNVRDLTLAEAAMLAGLPKAPSAY")
"not soluble"
>>> result_value("MGSDKIHHHHHHMRHTILFIIDGLPGGGAERVVITLAGEMAARGHQVTIASLQASLDYAIPAGVDYLLVEDRYRGPLRRQTEIRRRARQLDGALRRHFAGRRIDLAVSNLPKTDRIVAACPYLEQAWLCLHCAIQAGQLAERSGIRRWLKKRQLVRTYSGRKLITVCQALQRDVLDCGIRPARMEAIYNPFDLDWIRRRAAQPCPMDGEDFILHVGRFNHQKRHDRLLEAFKLSGYPGKLALLGQGGQAELSAIQVQAERLGVADRLVVAGFTDNPYAYMRAARALVLSSDYEGFGNVLVEALACGTPVASTNCPEGPAEILTGPLSIGLSELNGQALADAIKRVLASRPLAGPEQLAAFAQDAVVERYLALVNQ")
"not soluble"
>>> result_value("MGSDKIHHHHHHMNYLEAEDLTTGYGRQVISEALNCSFEAGTITSIIGPNGCGKSTLLKTLARILPAEKGKVFIKNQELQHFSSKEVAQELAILSQTPENTIDLSVFDLVSFGRYPYQSGWKSVTTEDQEYIQWALELTGLTELARESVAILSGGQRQRVWIAMALVQDTDILILDEPTTYLDPAHQLEILNVLKRINQEHQKTIVMTIHDINLASRFSDRVIAMKEGKIINEGTPQEVITVTGLADVFAIQAEISYHSQTQRPLVLSYELMEMELDG")
"not soluble"
>>> result_value("LFPDELIDQLLAQVQGKDAESILGESGLAGQLKKQLAERMLAAELSHHLAAETEQGRAGNHRNGTSAKTVLTPNGELKLDIPRDRQATFEPQLVGKYQRRLPGFDDHVISMYARGMSVREIQGHLLELYGLQVSPDLISTVTDEVLADVEQWQQRPLEAMYPIVYFDALRLKIRDEGTVKNKAVYLALGIRAEGRKEVLGLWIEQTEGAKFWLKVFNELRTCQEFRVLRPVK")
"not soluble"
>>> result_value("MGHHHHHHSHAWSGVLEWQEKPKPASVDANTKLTRSLPCQVYVNHGENLKTEQWPQKLIMQLIPQQLLTTLGPLFRNSRMVQFHFTNKDLESLKGLYRIMGNGFAGCVHFPHTAPCEVRVLMLLYSSKKKIFMGLIPYDQSGFVNGIRQVITNHKQVQQQKLEQQQRGMGGQQAPPGLGPILEDQAR")
"soluble"
>>> result_value("PGPPQGPPQPVQQSKRLQQTQAQVEEVVDIMRVNVDKVLERDSKISELDDRADALQAGASQFEASAGKLKRKFWWKNCKM")
"soluble"
>>> result_value("MAASLRLLGAASGLRYWSRRLRPAAGSFAAVCSRSVASKTPVGFIGLGNMGNPMAKNLMKHGYPLIIYDVFPDACKEFQDAGEQVVSSPADVAEKADRIITMLPTSINAIEAYSGANGILKKVKKGSLLIDSSTIDPAVSKELAKEVEKMGAVFMDAPVSGGVGAARSGNLTFMVGGVEDEFAAAQELLGCMGSNVVYCGAVGTGQAAKICNNMLLAISMIGTAEAMNLGIRLGLDPKLLAKILNMSSGRCWSSDTYNPVPGVMDGVPSANNYQGGFGTTLMAKDLGLAQDSATSTKSPILLGSLAHQIYRMMCAKGYSKKDFSSVFQFLREEETF")
"soluble"

---

# PROTOCOL_DETAILS: soluble on expression in E. coli; label from the status in PepcDB or PDB records
REPORTED_ENDPOINT: soluble on expression in E. coli

>>> result_value("MKQFSGLSRTIQGNHLLDTCAIDILKIGHRPLVLCAKQEYNTTVESFVKVLTCHGLIVKIVYMEEWDQNSVEECGEVGFRHRADHIIGIGNSSVAACTKAVADLLDLPAVLIPTSPFTTLPWVSVENKKRERPLFNESIQLIIADREQLLTQPTSELINGVVNTLLYLAAIKEVKRNHLFSLVDDILIRSFESVLLRGSLQAIEDFEARILSKEVQDVLEVLSTCVTLDLPSDAWDVIQQIESKLSERREDLVDEPLKRNVVLYLLLSYLTQESEEFQARLKWCQQLLLSANSSNLLSLEAVLKEIALEMGEDGSTRC")
"soluble"
>>> result_value("MNATPASADDLIVIGKIYSVHGVRGEVKVYSFTDPIGNLLDYKTWTLRREGSVEKQVELVSGRLQSKFLVVKLKGLDDREEARLLSGYEICVPRNLFPDLDDGEYYWYQLEGLKVIDQLGQLLGKIDHLLETGSNDVMVVKPCAGSLDDRERLLPYTEQCVLAIDMAAGEMKVEWDADFLEHHHHHH")
"soluble"
>>> result_value("EKGFKVVVLESAKVGFGATGRNGGQIVNSYSRDVDVIESRYDQNQAKALCDMIFEGGDIIRGLIDKYDINCDYKQGGLFTALNSKQLKGLEEHKKNWERYGNDQLTLLDAGEVEQAVGTKVYTGGLLDMRGGHIHPLKLALGEAAAFISLGGQIFEQSAVVSIDKGMNPVVKTAQGSVKSK")
"not soluble"
>>> result_value("MSESRLLTLRDYIRWAVSRFHAAGLFFGHGTDNAWDEARHLVLGSLHLPWEISDSYLDCRLEDDERAELAEILRRRIEERIPAAYLLGEAWFCGIPFSVDERVLVPRSPIAELIEQRFAPWLPAEPARILDLCTGSGCIGIACAYAFEQAEVVLADLSFDALEVANVNIERHDLGERVYTVQGDGFAGLPGQRFDLIVSNPPYVDAEDFADMPAEFHHEPELGLACGDDGLDLVRRMLAEAADHLSEKGLLIVEVGNSEVHVQALYPEVDFTWLEFEHGGHGVFMLSAAQCREHRELFRSRLEK")
"not soluble"
>>> result_value("MGSDKIHHHHHHMMDFDFLEGKRLTEDVALDETMVWNEDIEMLDLHLVATSALIGVVHRVSYELLSRYLPNDYTAVVVETLARHVKAVPTGTRVAVGVRVVGVVGNRVKFRGIVMSGDEKILEAEFVRAIVPREKLRRLALEKAEKTSRLFGI")
"soluble"
>>> result_value("MKAKLKQLRRLVESSFPEIENFHEKVDASFEKLENAKSFWSEIYVAHLKVVGDGVKVPESVFIKVPRISENVLRCEDESAVNHLNDVLLYYSKKENLFYKHFEYGSIPNFPFPKVYFTEDINGEATGGIVAENLSEKVFAVEHIPGLKHEQILRLMEALAGLHSFLMKRDDKSYVESFVEGAHGRETFSEGMQNMMFEEALTLENVSPEVFGNDRIRNIKWSFDYSIKNKATADAISAFPGIICHADLNVTNVLWKKDSAKDEISAIIDYQMLFIGSIAFDIIRVLTLGLNREIRRKMTQNYLDHYHKTLTELSNGKAPFSMEELLHQYSLIYPFSSNFSLFGIALYIKMYSDGTLGNPEDKEENCKELIDRALGIVEDIEALKNNYK")
"not soluble"
>>> result_value("MGSDKIHHHHHHMTAAESIYALYPYIQHAQLLAHNEKIKQDNVIFTYTVSLSYDEISLRVLHVDSDNTKHIHIQVLFEINQGKIYVKDLYHNSGAAFELLTSIKSNPSLHQASFAQNSVPASWLSRDILNSLAIADRIAQKAINQYAGDDYRPGYYSQIECSGTQLILSQINHMNSRSLSHKENYSLRNLTFTIPLNGKADSEMLYNTDRIGIMNINFSDHSSANNRSAGDAVKNQIAEEIRLYQNDVE")
"not soluble"
>>> result_value("MERNKLARQIIDTCLEMTRLGLNQGTAGNVSVRYQDGMLITPTGIPYEKLTESHIVFIDGNGKHEEGKLPSSEWRFHMAAYQSRPDANAVVHNHAVHCTAVSILNRSIPAIHYMIAAAGGNSIPCAPYATFGTRELSEHVALALKNRKATLLQHHGLIACEVNLEKALWLAHEVEVLAQLYLTTLAITDPVPVLSDEEIAVVLEKFKTYGLAIEE")
"soluble"
>>> result_value("MGSDKIHHHHHHMEELIQKALSSSNKVSSNSLIEKIIPVGGGCIHKAWSIHFQNGKRVFAKSNYIDNINMFKFERECLSVLKRFANESYICVPETLDLISYQNISILFLEWIDLKQCQQNVLGKGLALLHKSSSEWSKKNFGWEEEGFIGSSTQARGWKSNWGEFFVNYRLRPQLLQAKAWGVRVEDYEDVLIYLSSYLNDHQPKTSLVHGDLWSGNCGSTKNGLGSLYDPACYWADREVDISMTKLFGGFNREFYKGYEEIWPLNKFSKDRNDIYNLYHLLNHANIFGGSYKENSLKILKDLRSRV")
"not soluble"
>>> result_value("MKAIAGLTVNIKQGEFVYVVGPSGAGKSTFIKMMYREEKPSTGSINVNGLVIETLAERDVPYFRRQLGVIFQDFKLLPKLTVYENVAFALEVIEEEPDAIRERVTEVLGLVGLEDRADALPSELSGGEQQRVAIARAIVNKPKVVIADEPTGNLDIETALDIMKIFTRINERGTTIVMATHNADIVNTIRHRVIAIEGGKIVRDEIEGGYGYEG")
"not soluble"
>>> result_value("MTRTYAMVGTPCQITAATLMDRYTEDFPVELKLGLFCMENFSYTYLKKLAEEEGIDLADVSELRIEKGRLWFHLNDGSKVSVSLERARAAMRKNCSVCMDFTSEQSDISIGSVGSPEGWSTIIIRTERGHELIEKARKAGYIETKPLTERGIRILEKLASGKKEDNLQEIKRRESVARPVLYWRVMPDEEYLEEVTDYQFDDLRSDVIDVGACVLCGACVASCPEDIVSIKDRKPEVEGTCPEGCNACYVACPRTYVPDSIIGHDSAITPLGEYIEILSARAPMFRGQDGGVVTALLTYALREGIIDGALVVDRDQERPWKPLPVLAEEPQDIVKAAGTKYSACPLLKVLKELEHHHHHH")
"soluble"
